target_or_test_system: CDK9/CyclinT1 (Homo sapiens)
Sequence (P50750 whole entry, species assumed): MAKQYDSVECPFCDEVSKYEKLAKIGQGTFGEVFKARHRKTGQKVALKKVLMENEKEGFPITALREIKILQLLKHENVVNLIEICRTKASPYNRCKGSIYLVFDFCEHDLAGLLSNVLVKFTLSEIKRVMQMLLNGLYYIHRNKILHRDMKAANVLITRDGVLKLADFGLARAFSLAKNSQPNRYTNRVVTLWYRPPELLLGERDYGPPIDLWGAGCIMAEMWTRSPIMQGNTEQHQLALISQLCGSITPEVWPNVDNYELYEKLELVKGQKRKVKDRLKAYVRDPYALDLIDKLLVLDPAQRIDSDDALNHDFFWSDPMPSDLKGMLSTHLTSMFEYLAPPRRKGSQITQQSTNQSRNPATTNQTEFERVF
Sequence (O60563 whole entry partner, species assumed): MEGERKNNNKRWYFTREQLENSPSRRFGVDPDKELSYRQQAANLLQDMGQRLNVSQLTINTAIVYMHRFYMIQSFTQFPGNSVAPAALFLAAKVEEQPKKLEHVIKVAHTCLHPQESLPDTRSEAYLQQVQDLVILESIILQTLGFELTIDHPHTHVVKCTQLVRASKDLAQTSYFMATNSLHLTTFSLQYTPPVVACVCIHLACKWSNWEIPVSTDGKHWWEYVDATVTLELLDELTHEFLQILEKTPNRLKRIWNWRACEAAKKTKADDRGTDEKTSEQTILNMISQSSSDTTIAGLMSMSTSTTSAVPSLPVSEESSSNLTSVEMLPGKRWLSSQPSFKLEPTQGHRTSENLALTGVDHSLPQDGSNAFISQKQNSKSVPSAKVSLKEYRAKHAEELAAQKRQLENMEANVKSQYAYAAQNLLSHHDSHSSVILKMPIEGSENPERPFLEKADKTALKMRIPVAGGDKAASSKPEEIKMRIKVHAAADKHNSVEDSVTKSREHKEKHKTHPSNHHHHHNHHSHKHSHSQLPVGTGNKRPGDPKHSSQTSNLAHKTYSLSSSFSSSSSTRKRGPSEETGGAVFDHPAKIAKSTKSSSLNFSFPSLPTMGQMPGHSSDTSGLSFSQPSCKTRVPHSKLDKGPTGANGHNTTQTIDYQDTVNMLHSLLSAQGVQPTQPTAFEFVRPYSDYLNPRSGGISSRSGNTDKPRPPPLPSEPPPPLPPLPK
assay_procedure: ADP Glo kinase assay, CDK9/CyclinT1
condition_summary: CDK9/CyclinT1; Km ATP; read-out: Enzymatic inhibition, Ki, CDK9 T1
property_name: Ki (nM)

Sample records with Ki:
// lookup Ki for `CCN1CCN(Cc2ccc(Nc3nccc(-c4cnc5ccc(-c6ccccc6)cn45)n3)cn2)CC1`
60

// lookup Ki for `COc1cc(F)cc(-c2ccc3ncc(-c4ccnc(Nc5ccc(N6CCN(C)CC6)nc5)n4)n3c2)c1`
26

// lookup Ki for `O=C(c1ccco1)N1CCN(c2ccc(Nc3nccc(-c4cnc5ccc(-c6ccccc6)cn45)n3)cn2)CC1`
242

1. CC(C)N1CCN(c2ccc(Nc3nccc(-c4cnc5ccc(-c6ccsc6)cn45)n3)cn2)CC1
2. Cc1cnc(Nc2ccc(N3CCN(C)CC3)nc2)nc1-c1cnc2ccc(-c3ccccc3)cn12
3. COc1ccc(-c2ccc3ncc(-c4ccnc(Nc5ccc(N6CCN(C)CC6)nc5)n4)n3c2)cn1
4. COc1ccc(-c2ccc3ncc(-c4ccnc(Nc5ccc(N6CCN(C(C)=O)CC6)nc5)n4)n3c2)cn1
5. CCCNc1ccc(Nc2nccc(-c3cnc4ccc(Br)cn34)n2)cn1
Task field, ranking: reported Ki, descending order. // respond by listing labels in the order requested
2, 4, 5, 3, 1

a. CC(C)N1CCN(c2ccc(Nc3nccc(-c4cnc5ccc(Cl)cn45)n3)cn2)CC1
b. CN1CCN(c2ccc(Nc3nccc(-c4cnc5ccc(-c6cnn(C(F)F)c6)cn45)n3)cn2)CC1
Return label of the item with the larger Ki. Candidates: a , b . Identify your pick by its label.
a
(a: 14 nM, b: 7 nM)

---

target_or_test_system: CDK1/CyclinB (Homo sapiens, UniProt P06493)
Sequence (P06493 whole entry, species assumed): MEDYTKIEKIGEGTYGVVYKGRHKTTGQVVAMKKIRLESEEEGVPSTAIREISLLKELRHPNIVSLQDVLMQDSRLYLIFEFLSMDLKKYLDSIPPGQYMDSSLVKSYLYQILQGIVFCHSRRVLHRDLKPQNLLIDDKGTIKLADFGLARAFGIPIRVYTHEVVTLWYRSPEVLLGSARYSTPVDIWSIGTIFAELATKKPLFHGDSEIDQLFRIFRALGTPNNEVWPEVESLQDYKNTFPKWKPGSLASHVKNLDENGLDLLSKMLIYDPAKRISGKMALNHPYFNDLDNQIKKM
Sequence (P14635 whole entry partner, species assumed): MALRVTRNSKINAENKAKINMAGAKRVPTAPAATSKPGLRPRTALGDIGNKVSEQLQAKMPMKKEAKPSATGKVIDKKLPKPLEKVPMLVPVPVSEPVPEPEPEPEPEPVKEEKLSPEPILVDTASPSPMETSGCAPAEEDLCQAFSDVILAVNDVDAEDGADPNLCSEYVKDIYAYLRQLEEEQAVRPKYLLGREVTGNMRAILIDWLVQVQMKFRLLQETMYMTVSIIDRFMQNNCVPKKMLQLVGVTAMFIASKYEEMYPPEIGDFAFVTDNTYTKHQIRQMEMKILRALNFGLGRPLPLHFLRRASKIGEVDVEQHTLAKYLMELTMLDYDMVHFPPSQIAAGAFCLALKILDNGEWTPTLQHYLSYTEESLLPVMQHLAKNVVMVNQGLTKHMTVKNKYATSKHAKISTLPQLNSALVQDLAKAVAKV
assay_procedure: ADP Glo kinase assay, CDK1/CyclinB
Type: biochemical
condition_summary: compound at 1 μM, read-out: Residual enzymatic activity (%) at 1 μM, CDK1 B
property_name: remaining activity at 1 µM (%)

Sample records with remaining activity at 1 µM:
Enter reported remaining activity at 1 µM observed with CDK1/CyclinB (Homo sapiens, UniProt P06493) for `CN(C)c1ccc(Nc2nccc(-c3cnc4ccc(-c5ccccc5)cn34)n2)cn1`
76

Enter reported remaining activity at 1 µM observed with CDK1/CyclinB (Homo sapiens, UniProt P06493) for `Brc1ccc2ncc(-c3ccnc(Nc4ccc(NC5CCOCC5)nc4)n3)n2c1`
57

Enter reported remaining activity at 1 µM observed with CDK1/CyclinB (Homo sapiens, UniProt P06493) for `CCCNc1ccc(Nc2nccc(-c3cnc4ccc(-c5cnn(C(F)F)c5)cn34)n2)cn1`
96

Enter reported remaining activity at 1 µM observed with CDK1/CyclinB (Homo sapiens, UniProt P06493) for `CN1CCN(c2ccc(Nc3nccc(-c4cnc5ccc(-c6cnc(N)nc6)cn45)n3)cn2)CC1`
67

Enter reported remaining activity at 1 µM observed with CDK1/CyclinB (Homo sapiens, UniProt P06493) for CN1CCN(c2ccc(Nc3nccc(-c4cnc5ccc(-c6cnn(C)c6)cn45)n3)nc2)CC1 [Comparator compound B, reference compound]
98

a. COc1ccc(-c2ccc3ncc(-c4ccnc(Nc5ccc(N6CCN(C(C)=O)CC6)nc5)n4)n3c2)cn1
b. CCN1CCN(Cc2ccc(Nc3nccc(-c4cnc5ccc(-c6ccccc6)cn45)n3)cn2)CC1
Return label of the item with the larger remaining activity at 1 µM. Candidates: a , b . Identify your pick by its label.
b
(b: 92%, a: 58%)
